Kindly state composite z-score for each of the entries shown.
Assay: probe aLAP1 signal on lysate-treated microarray – cell lysate, small-molecule microarray, COS7 lysate, primary screen (AID 1124);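 also: lysate comes from COS7 cells expressing LAP1 and is applied at 0.3 µg/mL; score merges spot fluorescence near 667 nm with signal-to-noise over triplicate slides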
Conditions: probe aLAP1, fluorescence, higher = more signal
// no unit, no text: just the number

Which composite z-score value belongs to COc1cc2c(cc1O)C(c1ccc(CN3CCCC3)cc1)N(Cc1sc3ccccc3c1Cl)CC2 (stereo not drawn) ? 0.179

Now consider [N-]=[N+]=NCc1ccccc1[C@@H]1OC(c2ccc(OCCCO)cc2)=N[C@]1(Cc1ccccc1)C(=O)O . -0.324

Now consider C=CCN1Cc2ccccc2C[C@@]2(COC(c3ccc(OCCCO)cc3)=N2)C1=O . 0.547

Now consider CN(C)CCCCNC(=O)[C@@H]1C[C@@H]2C(=O)N[C@@H](CCCCN)C(=O)N2[C@@H]1c1cccc(OCCO)c1 . 0.429

Now consider CC[C@@H]1C=C(C(=O)O)[C@H](c2ccc(C(C)C)cc2)N1S(=O)(=O)c1ccc(C)cc1 . 1.63

Now consider CC(c1ccccc1)C(O)C1C=CC2C(=O)N(c3ccccc3)C(=O)C2N1Nc1ccccc1F (stereo not drawn) . 0.504

Now consider COc1ccc(CCNC(=O)[C@@]2(C)c3ccccc3C(=O)N(Cc3ccccc3)[C@H]2c2ccc(CO)cc2)cc1 . 0.941

Now consider Cc1ccc(S[C@]2(C(=O)NCc3ccccc3)CC(=O)N(Cc3cc(C(F)(F)F)cc(C(F)(F)F)c3)[C@@H]2c2ccc(CO)cc2)cc1 . 1.28

* * *

Assay: small molecules captured by biotinylated probe aFGF2 – biochemical, small-molecule microarray, fluorescence 635/667, stem cell growth factor project, primary screen (AID 1067);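 also: measures binding of biotinylated aFGF2 protein to printed compounds on slides; z-score merges feature fluorescence and signal-to-noise across triplicate slides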
Conditions: higher = more signal
endpoint: composite z-score
// no unit, no text: just the number

Which composite z-score value belongs to NC(=O)[C@]1(Cc2ccccc2)N=C(c2ccc(OCCCO)cc2)O[C@@H]1c1ccccc1 ? 0.0121

Now consider CC(C)C[C@@H]1NC(=O)[C@@H]2C[C@H](C(=O)NCCCCN(C)C)[C@H](c3ccc(O)cc3)N2C1=O . -0.167

Now consider CCCCCN1CC=CC23O[C@@H]4C=CCCOC(=O)C4[C@H]2C(=O)N(CCCO)[C@@H]3C1=O (stereo partly specified) . -0.186

Now consider C=C(C(=O)CC[C@H](OC(=O)c1cccnc1)c1ccccc1OCCO)C(C)C . -0.133

Now consider CC(C)C(CO)N1C(=O)[C@@H]2[C@H]3C(=O)OCC=C[C@H]3OC23C=CCN(c2ccc4ccccc4c2)C(=O)[C@@H]13 (stereo partly specified) . -0.169

Now consider C=C[C@H](C)[C@H](O)c1ccc(OCCO)cc1 . -0.243

Now consider CC1(C)C(=O)C(c2ccccc2)=C2CN3C(=O)N(CCc4ccccc4)C(=O)C3(Cc3ccccc3)C=C21 (stereo unspecified) . -0.0465

Now consider COCCCNC(=O)[C@@]1(C)c2ccccc2C(=O)N(Cc2ccccc2)[C@H]1c1ccc(CO)cc1 . -0.173

Now consider COC(=O)[C@@]1(Cc2ccc(F)cc2)[C@H]2c3cc(C(=O)N4CCCC4)n(CCc4ccc(OC)c(Br)c4)c3C[C@H]2CN1C(=O)c1ccccc1 . 0.266

Now consider COCCn1c(C(=O)N(C)C)cc2c1C[C@H]1CN(C(=O)c3ccccc3)[C@@](Cc3ccc(F)cc3)(C(=O)OC)[C@@H]21 . 0.203

Now consider CCOC(=O)C1=C[C@@H](C(C)(C)C)N(S(=O)(=O)c2ccc(C)cc2)[C@H]1c1ccc(Cl)c(Cl)c1 . 0.12

Now consider C=CCN1C(=O)[C@]2(Cc3ccccc31)N=C(c1ccc(OCCCO)cc1)O[C@@H]2c1ccccc1 . -0.062

Now consider CC1CC/C=C\[C@H]2OC34C=CCN(Cn5nnc6ccccc65)C(=O)[C@H]3N(CCCO)C(=O)[C@@H]4C2C(=O)O1 (stereo partly specified) . -0.0973

Now consider CN1C(=O)C2C=CC(C(O)C3=C[C@H]4C[C@@H](C3)C4(C)C)N(Nc3ccc([N+](=O)[O-])cc3[N+](=O)[O-])C2C1=O (stereo partly specified) . 0.15

Now consider CC(C)[Si]1(C(C)C)O[C@@H](c2ccccc2)c2cc(-c3ccc(-c4ccc(Cl)c(Cl)c4)o3)nc(CCc3ccccc3)c21 . -0.16

Now consider COCCOC(=O)N1C(=O)[C@@]2(c3cc(C#CCC(C(=O)OC)C(=O)OC)ccc31)[C@H](c1ccccc1OCCO)N1[C@H](c3ccccc3)[C@H](c3ccccc3)OC(=O)[C@H]1[C@@H]2C(=O)Nc1nc2ccccc2s1 . -0.0335
